# Measurement protocol: In vivo biodistribution in mice
# Parameters: species or system normal CD-1 male mice
# Stated conditions: iv, 60 min (1 hr) post injection
Experimental readout: Biodistribution: Blood (% dose/g)
Write the answer as a number in % dose/g, unit excluded.

Guide cases for Biodistribution: Blood, answers given:
{"columns": ["Compound", "Endpoint value"],
 "data": [
  ["O=C([O-])CN(CCN(CC(=O)[O-])Cc1cc(CCC(=O)NC(P(=O)(O)O)P(=O)(O)O)ccc1[O-])Cc1cc(CCC(=O)NC(P(=O)(O)O)P(=O)(O)O)ccc1[O-].[68Ga+3] [[^68Ga]2]", 0.47],
  ["O=C([O-])CN(CCN(CC(=O)[O-])Cc1cc(CCC(=O)N[C@@H](CC(=O)O)C(=O)O)ccc1[O-])Cc1cc(CCC(=O)NC(P(=O)(O)O)P(=O)(O)O)ccc1[O-].[68Ga+3] [[^68Ga]1e]", 0.11],
  ["O=C([O-])CN(CCN(CC(=O)[O-])Cc1cc(CCC(=O)NC(P(=O)(O)O)P(=O)(O)O)ccc1[O-])Cc1cc(CCC(=O)NC2C(O)OC(CO)C(O)C2O)ccc1[O-].[68Ga+3] (stereo not shown) [[^68Ga]1b]", 0.39]
]}

Here's the next entry for you.
Qu. I have this compound here, O=C([O-])CN(CCN(CC(=O)[O-])Cc1cc(CCC(=O)O)ccc1[O-])Cc1cc(CCC(=O)O)ccc1[O-].[68Ga+3] [[^68Ga]HBED-CC, reference compound] , and I need its recorded Biodistribution: Blood.
Ans. 0.14
